All values here come from patent US20110306606A1.

test system: Osteoblasts (Calvarial cells); details: ICR, mouse, 72 h, 1 μM
quantity kind: Cell viability (%) Calvarial cell
Give the value in % but do not write % after it.

# cpd smiles, readout units, Cell viability (%) Calvarial cell
measured = [
    ("Cc1nc(-c2ccc(Nc3nc(NC(C)(C)C)ccc3[N+](=O)[O-])cc2)cs1", "%", 102),
    ("CC(C)(C)Nc1ccc([N+](=O)[O-])c(Nc2ccc(-c3csc(C4CCCCC4)n3)cc2)n1", "%", 116),
    ("Nc1cccc(Nc2nc(N3CCC(O)CC3)ccc2[N+](=O)[O-])c1", "%", 93),
    ("CC(C)Nc1ccc([N+](=O)[O-])c(Nc2ccc(-c3csc(C4CCCCC4)n3)cc2)n1", "%", 105),
    ("CNc1ccc([N+](=O)[O-])c(Nc2ccc(C)cc2)n1", "%", 106),
    ("CC(=O)c1cccc(Nc2nc(N3CCNCC3)ccc2[N+](=O)[O-])c1", "%", 81),
]

Task: Which Cell viability (%) Calvarial cell reading was recorded for the molecule `Cc1nc(-c2ccc(Nc3nc(NC(C)C)ccc3[N+](=O)[O-])cc2)cs1` ?
Output: 102

Task: How about `Nc1ccc(Nc2nc(NCc3ccncc3)ccc2[N+](=O)[O-])cc1` ?
Output: 107
